The values you see were collected from patent US20140187548A1.

- targetOrTestSystem: human kinase Mps-1 (Homo sapiens)
- Construct: N-terminally GST-tagged human full length recombinant Mps-1 kinase; GST (N)
- Sequence (P33981 whole entry): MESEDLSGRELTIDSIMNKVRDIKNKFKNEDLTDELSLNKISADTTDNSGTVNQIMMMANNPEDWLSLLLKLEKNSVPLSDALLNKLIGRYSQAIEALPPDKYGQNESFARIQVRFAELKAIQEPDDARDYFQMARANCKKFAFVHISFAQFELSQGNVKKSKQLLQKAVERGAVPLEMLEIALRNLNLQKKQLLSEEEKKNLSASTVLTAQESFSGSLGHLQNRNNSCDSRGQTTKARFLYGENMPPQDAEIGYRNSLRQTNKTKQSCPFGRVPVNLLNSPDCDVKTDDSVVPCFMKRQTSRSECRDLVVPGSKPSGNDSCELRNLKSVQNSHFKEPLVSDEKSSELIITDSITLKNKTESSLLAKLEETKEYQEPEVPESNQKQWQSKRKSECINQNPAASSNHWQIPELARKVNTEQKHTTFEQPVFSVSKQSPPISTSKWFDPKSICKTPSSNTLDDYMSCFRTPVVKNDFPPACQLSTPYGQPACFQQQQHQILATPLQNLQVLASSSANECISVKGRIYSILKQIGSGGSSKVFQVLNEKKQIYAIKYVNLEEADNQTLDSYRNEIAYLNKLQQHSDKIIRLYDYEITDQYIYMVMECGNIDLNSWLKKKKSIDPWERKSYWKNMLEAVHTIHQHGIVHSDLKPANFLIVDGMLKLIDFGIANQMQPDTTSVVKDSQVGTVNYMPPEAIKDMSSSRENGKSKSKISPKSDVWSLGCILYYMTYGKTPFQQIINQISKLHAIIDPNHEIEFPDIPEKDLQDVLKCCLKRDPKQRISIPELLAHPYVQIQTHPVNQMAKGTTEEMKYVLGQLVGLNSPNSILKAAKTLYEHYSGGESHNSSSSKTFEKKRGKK
- test: Mps-1 kinase assay (TR-FRET)
- assayConditions: N-terminally GST-tagged human full length recombinant Mps-1; 10 μM ATP; 1 μM peptide substrate; 15 min pre-incubation; 60 min at 22° C.
Where a name gives a salt, the structure may show the parent alone.
List of IC50 values.
Quick reminder: number only, in nM, skip the unit.

Field: example entries. Status: answers known.
• CC(C)(O)CNc1nc(-c2ccc(F)cc2)cn2c(-c3ccc(C(=O)NC4CC4)c(Cl)c3)cnc12 = 12.9
• COC(=O)CCNc1nc(-c2ccccc2)cn2c(-c3ccc(C(=O)NC4CC4)cc3)cnc12 = 2.3
• CCN1CCC(CNc2nc(-c3ccc(F)cc3)cn3c(-c4ccc(C(=O)NC5CC5)c(C)c4)cnc23)C1 (centres unmarked) = 63.4
• NCCCNc1nc(-c2ccccc2)cn2c(-c3ccc(C(=O)NC4CC4)cc3)cnc12 [Example 8-1, hydrochloride] = 21.1
• CC(C)(O)CNc1nc(-c2ccccc2CO)cn2c(-c3ccc(C(=O)NC4CC4)cc3)cnc12 = 10.3

Q: Looking for the measured IC50 of CC(C)CNc1nc(-c2ccc(SC3CC3)cc2)cn2c(-c3ccc(C(=O)NC4CC4)cc3)cnc12 , can you help?
Result: 32.2

Q: Looking for the measured IC50 of CN(C)CCCNc1nc(-c2ccccc2)cn2c(-c3ccc(C(=O)NC4CC4)cc3)cnc12 , can you help?
Result: 26.8

Q: Looking for the measured IC50 of CC(C)CNc1nc(-c2ccccc2C(=O)N(C)C)cn2c(-c3ccc(C(=O)NC4CC4)cc3)cnc12 , can you help?
Result: 8.2
